The reported numbers originate from patent US7288547B2.

Tested on: MCF7
assayName: Proliferation Assay (crystal violet)
Format: cell-based, human
testParameters: Homo sapiens, MCF7, 96 h, MCF7 cells, 4 days incubation; read-out: Proliferation IC50 MCF7
endpointName: IC50 (nM)

Use the examples below as a reference point.
[
  {
    "compound": "C[C@H](O)[C@H](C)Nc1nc(Nc2ccc(S(N)(=O)=O)nc2)ncc1Br [Example 3.5]",
    "endpointName": "IC50",
    "unitAbbreviation": "nM",
    "endpointResult": 880
  },
  {
    "compound": "C[C@H](CO)Nc1nc(Nc2ccc(S(=O)(=O)NCCO)nc2)ncc1Br [Example 1.20]",
    "endpointName": "IC50",
    "unitAbbreviation": "nM",
    "endpointResult": 1900
  },
  {
    "compound": "CC(Nc1nc(Nc2ccc(S(N)(=O)=O)nc2)ncc1Br)C(C)(C)O (stereo not drawn) [Example 3.4]",
    "endpointName": "IC50",
    "unitAbbreviation": "nM",
    "endpointResult": 840
  },
  {
    "compound": "CC(Nc1nc(Nc2ccc(S(N)(=O)=O)nc2)ncc1Br)C(C)NC1CC1 (stereo not drawn) [Example 6.0]",
    "endpointName": "IC50",
    "unitAbbreviation": "nM",
    "endpointResult": 2300
  },
  {
    "compound": "CCC(Sc1nc(Nc2ccc(S(N)(=O)=O)nc2)ncc1Br)C(C)O (stereo not drawn) [Example 4.6]",
    "endpointName": "IC50",
    "unitAbbreviation": "nM",
    "endpointResult": 630
  },
  {
    "compound": "COC[C@H](C)Nc1nc(Nc2ccc(S(N)(=O)=O)nc2)ncc1Br [Example 1.16]",
    "endpointName": "IC50",
    "unitAbbreviation": "nM",
    "endpointResult": 2000
  }
]

a. CC[C@H](CO)Nc1nc(Nc2ccc(S(N)(=O)=O)nc2)ncc1Br [Example 1.17]
b. C[C@@H](O)[C@@H](C)Nc1nc(Nc2ccc(S(N)(=O)=O)nc2)ncc1Br [Example 3.6]
c. CC(O)C(C)Nc1nc(Nc2ccc(S(N)(=O)=O)nc2)ncc1Br (stereo not drawn) [Example 1.12]
d. CC(C)[C@H](CO)Nc1nc(Nc2cc(S(N)(=O)=O)sc2Cl)ncc1Br [Example 1.8]
e. NS(=O)(=O)c1ccc(Nc2ncc(Br)c(SCCCCO)n2)cn1 [Example 1.21]
Order the entries by their reported IC50, beginning at the minimum. When ranking, write the labels in the order the request describes.
b, c, a, d, e
(b: 100 nM, c: 240 nM, a: 500 nM, d: 3000 nM, e: 5300 nM)

a. CC(CO)N(C)c1nc(Nc2ccc(S(N)(=O)=O)nc2)ncc1Br (stereo not drawn) [Example 3.3]
b. CC(O)C(C)Sc1nc(Nc2ccc(S(N)(=O)=O)nc2)ncc1Br (stereo not drawn) [Example 4.3]
// compare measured IC50 between a and b ; output the lower one Please respond with the label that marks your chosen entry.
b

I. NS(=O)(=O)c1ccc(Nc2ncc(Br)c(NC3CCCCC3)n2)cn1 [Example 3.12]
II. CC1CCCCC1Nc1nc(Nc2ccc(S(N)(=O)=O)nc2)ncc1Br (stereo not drawn) [Example 3.13]
Could you tell me which of these two has the smaller IC50 figure? First: I Second: II Reply with the label of the item you choose.
II
